assayTarget: FGFR2 (h) (Homo sapiens)
Sequence (P21802 22-821): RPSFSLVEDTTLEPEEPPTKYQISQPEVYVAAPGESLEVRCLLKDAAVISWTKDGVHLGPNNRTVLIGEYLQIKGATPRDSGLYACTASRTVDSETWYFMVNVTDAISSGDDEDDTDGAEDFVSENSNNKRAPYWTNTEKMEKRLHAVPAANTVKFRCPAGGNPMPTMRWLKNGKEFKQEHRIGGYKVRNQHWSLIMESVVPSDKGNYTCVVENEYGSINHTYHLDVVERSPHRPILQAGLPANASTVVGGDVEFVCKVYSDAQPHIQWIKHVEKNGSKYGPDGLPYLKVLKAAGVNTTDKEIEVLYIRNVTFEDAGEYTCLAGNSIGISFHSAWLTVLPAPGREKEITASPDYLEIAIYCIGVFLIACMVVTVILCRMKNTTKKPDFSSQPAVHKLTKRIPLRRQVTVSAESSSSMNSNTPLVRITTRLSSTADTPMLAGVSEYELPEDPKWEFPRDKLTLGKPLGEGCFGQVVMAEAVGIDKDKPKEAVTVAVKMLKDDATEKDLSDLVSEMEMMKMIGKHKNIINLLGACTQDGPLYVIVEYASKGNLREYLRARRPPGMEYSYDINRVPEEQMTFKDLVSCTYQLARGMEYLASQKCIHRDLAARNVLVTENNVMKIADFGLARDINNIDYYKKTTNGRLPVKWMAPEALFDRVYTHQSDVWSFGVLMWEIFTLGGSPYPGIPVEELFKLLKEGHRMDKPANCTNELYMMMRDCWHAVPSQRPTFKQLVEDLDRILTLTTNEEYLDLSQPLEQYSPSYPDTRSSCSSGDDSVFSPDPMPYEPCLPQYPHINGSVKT
method: FGFR2 (enzymatic assay), TR-FRET
Type: biochemical
runConditions: read-out: FGFR 2 pIC50 (converted)
A collection of molecules and their measured log10 IC50
Use the decimal logarithm of IC50 (nM).

The examples below pair each entry with its known result.
In [3]: df
Out[3]:
                                   molecule  number
0  COc1cc(OC)cc(N(CCO)c2ccc3ncc(-c4ccc(OC)nc4)nc3c2)c1 [Compound 111]    1.37
1  CNC(=O)c1cc(-c2cnc3ccc(N(CCNCC(F)(F)F)c4cc(OC)cc(OC)c4)cc3n2)ccn1 [Compound 113]    1.66
2  COc1cc(OC)cc(N(CC2CC2)c2ccc3ncc(C#Cc4ccncc4)nc3c2)c1 [Compound 23]    2.63
3  COc1cc(OC)cc(N(CCCO)c2ccc3ncc(-c4ccnc(NC(=O)OC(C)(C)C)c4)nc3c2)c1 [Compound 128]    2.13

Prompt: Value lookup for log10 IC50; key = COc1cc(OC)cc(N(CCCO)c2ccc3ncc(-c4ccnc(-c5ccnc(Cl)c5)c4)nc3c2)c1 [Compound 133]
Completion: 2.06

Prompt: Try this molecule too: COCC(CN(c1cc(OC)cc(OC)c1)c1ccc2ncc(-c3cccnc3)nc2c1)OC(C)=O (single isomer, unassigned) [Compound 52]
Completion: 1.96

Prompt: Try this molecule too: COc1cc(OC)cc(N(CCN2CCOCC2)c2ccc3ncc(-c4ccc(NC(=O)N5CCOCC5)nc4)nc3c2)c1 [Compound 35]
Completion: 1.42

* * *

A collection of compounds and their measured BAF3-FGFR 3 (MIN IL3) 384 well pIC50
assayTarget: Ba/F3-FGFR3-transfected cells (Homo sapiens)
Sequence (P22607 whole entry, change not shown): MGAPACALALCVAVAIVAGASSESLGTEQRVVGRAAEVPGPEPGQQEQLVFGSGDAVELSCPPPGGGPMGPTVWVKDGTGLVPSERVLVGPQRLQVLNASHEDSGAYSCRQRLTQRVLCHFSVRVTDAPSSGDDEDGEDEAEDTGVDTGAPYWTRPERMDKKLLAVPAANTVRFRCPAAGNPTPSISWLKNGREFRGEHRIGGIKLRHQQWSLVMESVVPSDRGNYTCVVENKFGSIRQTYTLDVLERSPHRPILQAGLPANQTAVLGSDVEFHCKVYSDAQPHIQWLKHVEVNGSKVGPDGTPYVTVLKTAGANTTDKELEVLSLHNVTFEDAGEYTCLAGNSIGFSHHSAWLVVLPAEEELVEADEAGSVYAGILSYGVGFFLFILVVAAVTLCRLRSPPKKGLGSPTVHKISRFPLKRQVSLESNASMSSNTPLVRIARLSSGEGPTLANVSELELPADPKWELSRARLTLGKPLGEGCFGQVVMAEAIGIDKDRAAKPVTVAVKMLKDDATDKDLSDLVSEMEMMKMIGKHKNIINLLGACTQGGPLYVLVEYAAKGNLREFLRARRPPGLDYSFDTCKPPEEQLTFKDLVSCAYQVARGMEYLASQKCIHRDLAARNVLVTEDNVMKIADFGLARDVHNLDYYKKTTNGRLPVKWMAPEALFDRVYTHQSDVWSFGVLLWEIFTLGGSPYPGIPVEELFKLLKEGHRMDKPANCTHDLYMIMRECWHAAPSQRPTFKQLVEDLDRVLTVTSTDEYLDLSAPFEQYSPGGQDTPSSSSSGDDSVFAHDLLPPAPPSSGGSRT
method: Ba/F3-FGFR3 (minus IL3) cellular proliferation assay, Alamar Blue
Format: cell-based
runConditions: minus IL3, 384 well

The examples below pair each entry with its known result.
                             smilesnotation  result
0  COc1cc(OC)cc(N(CC2CC2)c2ccc3ncc(NC(=O)c4ccc(F)cc4)nc3c2)c1      <5
1  COc1cc(OC)cc(N(CCN2CCN(C(C)=O)CC2)c2ccc3ncc(-c4ccc(N)nc4)nc3c2)c1   ~6.15
2  COc1cc(OC)cc(N(CC2CC2)c2ccc3ncc(-c4cnc5[nH]ccc5c4)nc3c2)c1      <5
3  COc1cc(OC)cc(N(CCNC(C)C)c2ccc3ncc(-c4ccn(C)c4)nc3c2)c1   ~7.69
4  COc1cc(OC)cc(N(CC2CC2)c2ccc3ncc(C(=O)N4CCC4)nc3c2)c1      <5

Prompt: Value lookup for BAF3-FGFR 3 (MIN IL3) 384 well pIC50; key = `COc1cc(OC)cc(N(CCCNCC(F)(F)F)c2ccc3ncc(C(=O)NCCN4CCOCC4)nc3c2)c1`
Completion: <5

* * *

assayTarget: UniProt P11362
Sequence (P11362 22-822): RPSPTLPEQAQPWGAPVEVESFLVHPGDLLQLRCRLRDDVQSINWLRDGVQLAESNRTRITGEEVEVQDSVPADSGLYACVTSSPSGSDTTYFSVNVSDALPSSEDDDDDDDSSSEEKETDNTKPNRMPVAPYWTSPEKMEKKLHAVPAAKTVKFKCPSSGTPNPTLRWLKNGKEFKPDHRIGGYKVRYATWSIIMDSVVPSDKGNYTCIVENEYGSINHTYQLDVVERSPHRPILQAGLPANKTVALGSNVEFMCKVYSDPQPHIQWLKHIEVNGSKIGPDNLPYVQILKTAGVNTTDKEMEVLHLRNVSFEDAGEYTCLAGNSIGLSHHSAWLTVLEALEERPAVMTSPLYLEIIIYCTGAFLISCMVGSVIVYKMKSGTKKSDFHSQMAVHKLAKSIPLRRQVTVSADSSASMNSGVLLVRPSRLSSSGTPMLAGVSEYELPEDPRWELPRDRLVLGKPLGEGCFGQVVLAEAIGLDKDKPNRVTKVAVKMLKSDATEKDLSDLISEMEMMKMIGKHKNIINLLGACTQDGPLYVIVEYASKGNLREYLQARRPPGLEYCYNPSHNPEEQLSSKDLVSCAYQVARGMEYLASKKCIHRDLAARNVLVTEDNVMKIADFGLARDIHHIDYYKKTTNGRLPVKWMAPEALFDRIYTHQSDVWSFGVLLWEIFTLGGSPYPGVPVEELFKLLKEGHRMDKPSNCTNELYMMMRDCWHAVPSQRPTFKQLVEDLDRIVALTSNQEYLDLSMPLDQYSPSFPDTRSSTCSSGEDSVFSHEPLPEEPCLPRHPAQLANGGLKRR
method: FGFR1 (enzymatic assay), TR-FRET
Format: biochemical
runConditions: read-out: FGFR 1 pIC50 (converted)
Under this convention, rule met denotes IC50 strictly below 70 nM and rule not met denotes IC50 at or above 70 nM.

# example entries with known answers
>>> df
                                   molecule  assignedclass
0  COc1cc(OC)cc(N(CC2CC2)c2ccc3ncc(C(=O)NCc4ccc(F)cc4)nc3c2)c1 [Compound 101]   rule not met
1  CCOC(=O)c1ncn(-c2cnc3ccc(N(CC4CC4)c4cc(OC)cc(OC)c4)cc3n2)c1C [Compound 65]   rule not met
2  COc1cc(OC)cc(N(CC2CC2)c2ccc3ncc(-c4cn[nH]n4)nc3c2)c1 [Compound 69]   rule not met
3  COc1cc(OC)cc(N(CCO)c2ccc3ncc(-c4ccccc4)nc3c2)c1 [Compound 120]       rule met
4  CNC(=O)OCCN(c1cc(OC)cc(OC)c1)c1ccc2ncc(-c3ccc(NC(=O)OC(C)(C)C)nc3)nc2c1 [Compound 80]   rule not met

Prompt: Threshold test, IC50 < 70 nM: COc1cc(OC)cc(N(CCN)c2ccc3ncc(-c4ccn(C)c4)nc3c2)c1 [Compound 79]
Completion: rule met

Prompt: Try this molecule too: COc1cc(OC)cc(N(Cc2cccc(CN)n2)c2ccc3ncc(-c4ccc(N)nc4)nc3c2)c1 [Compound 51]
Completion: rule met

Prompt: Try this molecule too: COc1cc(OC)cc(N(CCO)c2ccc3ncc(-c4ccnc(C(=O)NCCCCCO)c4)nc3c2)c1 [Compound 139]
Completion: rule met

Prompt: Try this molecule too: COc1cc(OC)cc(N(CCCNCC(F)(F)F)c2ccc3ncc(-c4ccnc(F)c4)nc3c2)c1 [Compound 144]
Completion: rule not met

Prompt: Try this molecule too: COc1cc(OC)cc(N(CCNC(C)C)c2ccc3ncc(C(=O)NCCCN4CCN(C)CC4)nc3c2)c1 [Compound 159]
Completion: rule met
